# METHOD_NOTES: Ratio of AUC (0 to infinity) in F344 rat liver to AUC (0 to infinity) in F344 rat plasma at 5 mg/kg, iv administered as single bolus dose
# Assay type: ADME, organism-based
# Parameters: dose 5 mg/kg, route intravenous
# REPORTED_CONDITIONS: liver and plasma

SUBSTANCE_SMILES	Kp
CC[C@H](C)C[C@H](C)CCCCCCCCC(=O)N[C@H]1C[C@@H](O)[C@@H](NCCN)NC(=O)[C@@H]2[C@@H](O)CCN2C(=O)[C@H]([C@H](O)CCN)NC(=O)[C@H]([C@H](O)[C@@H](O)c2ccc(O)cc2)NC(=O)[C@@H]2C[C@@H](O)CN2C(=O)[C@H]([C@@H](C)O)NC1=O	12.4

====

# METHOD_NOTES: Ratio of AUC (0 to infinity) in F344 rat lung to AUC (0 to infinity) in F344 rat plasma at 5 mg/kg, iv administered as single bolus dose
# Assay type: ADME, organism-based
# Set-up: dose 5 mg/kg, route intravenous
# REPORTED_CONDITIONS: lung and plasma

COMPOUND	Kp
CC[C@H](C)C[C@H](C)CCCCCCCCC(=O)N[C@H]1C[C@@H](O)[C@@H](NCCN)NC(=O)[C@@H]2[C@@H](O)CCN2C(=O)[C@H]([C@H](O)CCN)NC(=O)[C@H]([C@H](O)[C@@H](O)c2ccc(O)cc2)NC(=O)[C@@H]2C[C@@H](O)CN2C(=O)[C@H]([C@@H](C)O)NC1=O [CASPOFUNGIN]	10.4

====

# METHOD_NOTES: Tmax in F344 rat spleen at 5 mg/kg, iv administered as single bolus dose by HPLC method
# Format: ADME, organism-based
# Set-up: dose 5 mg/kg, route intravenous

COMPOUND	UNIT_SPEC	Tmax
CCCCCOc1ccc(-c2ccc(-c3ccc([14C](=O)N[C@H]4C[C@@H](O)[C@@H](O)NC(=O)[C@@H]5[C@@H](O)[C@@H](C)CN5C(=O)[C@H]([C@@H](C)O)NC(=O)[C@H]([C@H](O)[C@@H](O)c5ccc(O)cc5)NC(=O)[C@@H]5C[C@@H](O)CN5C(=O)[C@H]([C@@H](C)O)NC4=O)cc3)cc2)cc1 [14C-ANIDULAFUNGIN]	min	30

====

# METHOD_NOTES: Cmax in F344 rat plasma at 5 mg/kg, iv administered as single bolus dose after 5 min by HPLC method
# Format: ADME, organism-based
# Set-up: dose 5 mg/kg, route intravenous
READOUT: Cmax (ng/mL)

COMPOUND	MEASURED
CCCCCOc1ccc(-c2ccc(-c3ccc([14C](=O)N[C@H]4C[C@@H](O)[C@@H](O)NC(=O)[C@@H]5[C@@H](O)[C@@H](C)CN5C(=O)[C@H]([C@@H](C)O)NC(=O)[C@H]([C@H](O)[C@@H](O)c5ccc(O)cc5)NC(=O)[C@@H]5C[C@@H](O)CN5C(=O)[C@H]([C@@H](C)O)NC4=O)cc3)cc2)cc1 [14C-ANIDULAFUNGIN]	5250

====

# METHOD_NOTES: Cmax in F344 rat kidney at 5 mg/kg, iv administered as single bolus dose after 30 min by HPLC method
# Type: ADME, organism-based
# Parameters: dose 5 mg/kg, route intravenous

MOLECULE	Cmax / ng/g
CCCCCOc1ccc(-c2ccc(-c3ccc([14C](=O)N[C@H]4C[C@@H](O)[C@@H](O)NC(=O)[C@@H]5[C@@H](O)[C@@H](C)CN5C(=O)[C@H]([C@@H](C)O)NC(=O)[C@H]([C@H](O)[C@@H](O)c5ccc(O)cc5)NC(=O)[C@@H]5C[C@@H](O)CN5C(=O)[C@H]([C@@H](C)O)NC4=O)cc3)cc2)cc1 [14C-ANIDULAFUNGIN]	16100

====

# METHOD_NOTES: Ratio of AUC in rat liver to AUC in rat plasma at 1 mg/kg, iv
# Assay type: ADME, organism-based
# Parameters: dose 1 mg/kg, route intravenous
# REPORTED_CONDITIONS: liver and plasma, read-out: Ratio AUC
*1 amine or outer side, *2 acyl side, *3 side chain or, on linkers, in order; H or OH if unused. Where a SMILES comes first, the peptide text is derived from it. Bridges are numbered along the chain shown (N, C = ends). [ ]: non-standard residue; d: D form. The star is where a group is joined. hTyr(3S-OH,4S-OH,3'-OSO3H) = N[C@H](C(=O)O)[C@H](O)[C@@H](O)c1ccc(O)c(OS(=O)(=O)O)c1; Orn(4R-OH,5R-OH) = O=C([C@H](C[C@@H](O)[C@@H](O)N[*:3])N[*:1])[*:2]; Pro(3S-OH,4S-Me) = C[C@H]1CN[C@H](C(=O)O)[C@H]1O; X1 = CCCCCOc1ccc(-c2cc(-c3ccc(C(=O)*)cc3)no2)cc1; Gln(3R-OH) = NC(=O)C[C@@H](O)[C@H](N)C(=O)O; Hyp = O=C(O)[C@@H]1C[C@@H](O)CN1

COMPOUND	Kp
CCCCCOc1ccc(-c2cc(-c3ccc(C(=O)N[C@H]4C[C@@H](O)[C@@H](O)NC(=O)[C@@H]5[C@@H](O)[C@@H](C)CN5C(=O)[C@H]([C@H](O)CC(N)=O)NC(=O)[C@H]([C@H](O)[C@@H](O)c5ccc(O)c(OS(=O)(=O)O)c5)NC(=O)[C@@H]5C[C@@H](O)CN5C(=O)[C@H]([C@@H](C)O)NC4=O)cc3)no2)cc1 [MICAFUNGIN] (X1-[Orn(4R-OH,5R-OH)]T[Hyp][hTyr(3S-OH,4S-OH,3'-OSO3H)][Gln(3R-OH)][Pro(3S-OH,4S-Me)]; lactam 1-C)	7.8

====

# METHOD_NOTES: Volume of distribution in F344 rat at 5 mg/kg, iv administered as single bolus dose
# Type: ADME, organism-based
# Design: dose 5 mg/kg, route intravenous
# REPORTED_CONDITIONS: in vivo
*1 amine or outer side, *2 acyl side, *3 side chain or, on linkers, in order; H or OH if unused. Where a SMILES comes first, the peptide text is derived from it. Bridges are numbered along the chain shown (N, C = ends). [ ]: non-standard residue; d: D form. The star is where a group is joined. pTerphenylCO(4''-OnC5H11) = CCCCCOc1ccc(-c2ccc(-c3ccc(C(=O)*)cc3)cc2)cc1; Orn(4R-OH,5R-OH) = O=C([C@H](C[C@@H](O)[C@@H](O)N[*:3])N[*:1])[*:2]; hTyr(3S-OH,4S-OH) = N[C@H](C(=O)O)[C@H](O)[C@@H](O)c1ccc(O)cc1; Pro(3S-OH,4S-Me) = C[C@H]1CN[C@H](C(=O)O)[C@H]1O; Hyp = O=C(O)[C@@H]1C[C@@H](O)CN1
READOUT: Vd (L/kg)

MOLECULE	MEASURED
CCCCCOc1ccc(-c2ccc(-c3ccc(C(=O)N[C@H]4C[C@@H](O)[C@@H](O)NC(=O)[C@@H]5[C@@H](O)[C@@H](C)CN5C(=O)[C@H]([C@@H](C)O)NC(=O)[C@H]([C@H](O)[C@@H](O)c5ccc(O)cc5)NC(=O)[C@@H]5C[C@@H](O)CN5C(=O)[C@H]([C@@H](C)O)NC4=O)cc3)cc2)cc1 [ANIDULAFUNGIN] ({pTerphenylCO(4''-OnC5H11)}-[Orn(4R-OH,5R-OH)]T[Hyp][hTyr(3S-OH,4S-OH)]T[Pro(3S-OH,4S-Me)]; lactam 1-C)	2.2

====

# METHOD_NOTES: Cmax in F344 rat liver at 5 mg/kg, iv administered as single bolus dose after 5 min by HPLC method
# Format: ADME, organism-based
# Design: dose 5 mg/kg, route intravenous

COMPOUND	UNIT_SPEC	Cmax
CCCCCOc1ccc(-c2ccc(-c3ccc([14C](=O)N[C@H]4C[C@@H](O)[C@@H](O)NC(=O)[C@@H]5[C@@H](O)[C@@H](C)CN5C(=O)[C@H]([C@@H](C)O)NC(=O)[C@H]([C@H](O)[C@@H](O)c5ccc(O)cc5)NC(=O)[C@@H]5C[C@@H](O)CN5C(=O)[C@H]([C@@H](C)O)NC4=O)cc3)cc2)cc1 [14C-ANIDULAFUNGIN]	ng/g	15900

====

# METHOD_NOTES: Ratio of AUC in rat lung to AUC in rat plasma at 1 mg/kg, iv
# Assay type: ADME, organism-based
# Design: dose 1 mg/kg, route intravenous
# REPORTED_CONDITIONS: lung and plasma, read-out: Ratio AUC
*1 amine or outer side, *2 acyl side, *3 side chain or, on linkers, in order; H or OH if unused. Where a SMILES comes first, the peptide text is derived from it. Bridges are numbered along the chain shown (N, C = ends). [ ]: non-standard residue; d: D form. The star is where a group is joined. hTyr(3S-OH,4S-OH,3'-OSO3H) = N[C@H](C(=O)O)[C@H](O)[C@@H](O)c1ccc(O)c(OS(=O)(=O)O)c1; Orn(4R-OH,5R-OH) = O=C([C@H](C[C@@H](O)[C@@H](O)N[*:3])N[*:1])[*:2]; Pro(3S-OH,4S-Me) = C[C@H]1CN[C@H](C(=O)O)[C@H]1O; X1 = CCCCCOc1ccc(-c2cc(-c3ccc(C(=O)*)cc3)no2)cc1; Gln(3R-OH) = NC(=O)C[C@@H](O)[C@H](N)C(=O)O; Hyp = O=C(O)[C@@H]1C[C@@H](O)CN1

COMPOUND	Kp
CCCCCOc1ccc(-c2cc(-c3ccc(C(=O)N[C@H]4C[C@@H](O)[C@@H](O)NC(=O)[C@@H]5[C@@H](O)[C@@H](C)CN5C(=O)[C@H]([C@H](O)CC(N)=O)NC(=O)[C@H]([C@H](O)[C@@H](O)c5ccc(O)c(OS(=O)(=O)O)c5)NC(=O)[C@@H]5C[C@@H](O)CN5C(=O)[C@H]([C@@H](C)O)NC4=O)cc3)no2)cc1 [MICAFUNGIN] (X1-[Orn(4R-OH,5R-OH)]T[Hyp][hTyr(3S-OH,4S-OH,3'-OSO3H)][Gln(3R-OH)][Pro(3S-OH,4S-Me)]; lactam 1-C)	3.6

Cited source: ChEMBL document CHEMBL1275442
